// data source = the RNAGym collection of RNA variant scans (doi:10.7554/elife.90254)

B1: LINE1-full (parent)
chain: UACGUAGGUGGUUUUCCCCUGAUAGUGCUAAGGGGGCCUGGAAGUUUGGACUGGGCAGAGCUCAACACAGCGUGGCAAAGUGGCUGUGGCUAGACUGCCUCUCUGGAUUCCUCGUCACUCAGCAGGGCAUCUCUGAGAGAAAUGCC

# Variants of: B1
# test_summary: self-cleavage, relative activity (ratio to wild type); higher = more cleavage; in vitro, sequencing; the parent is a self-cleaving ribozyme
Would you mind telling me the reported self-cleavage of each entry?
Give bare numbers.

Q. Fill in the blank: the reported self-cleavage of C19U C38A is ____.
A. 1.13

Could you report self-cleavage for every entry in the following list?
1. U13G A107U
2. U87A U109A

A.
[1.58, 0.08]

Hi team, please reply with self-cleavage for each item in this list.
1. U13G U96C
2. A77C U85A
3. A67G G74U
4. U20C U87C
5. U29C U87C
6. U100A A124U

A.
1. 0.14
2. 0.18
3. 0.54
4. 0.24
5. 0.41
6. 0.88

Give measured self-cleavage for every item shown.
1. U13C G88U
2. U115C U130A
3. U9C A78C
4. U39C U109G
5. U13A C103A
6. A92U A141G

A.
1. 0.09
2. 1.78
3. 1.5
4. 0.74
5. 1.04
6. 0.96

Record self-cleavage for all entries; do not skip any.
1. U108C A124G
2. U5C G105A
3. U9A G125U
4. U23C A67U
5. A43G G48A
6. A59G U143A
7. U12G A59G

A.
1. 1.47
2. 1.16
3. 0.15
4. 0.18
5. 1.54
6. 0.08
7. 0.23
